- procedure-details: Compound is evaluated for inhibition of aspartate transcarbamoylase (ATCase)
- Set-up: species or system Escherichia coli
observed-property: Ki (µM)
Report the figure in µM without appending any unit label.

Before answering, review these 5 worked examples.
O=C(O)CC(CS(=O)(=O)CP(=O)(O)O)C(=O)O (stereo unspecified) :: 650
O=C(O)CC(NS(=O)(=O)CP(=O)(O)O)C(=O)O (stereo unspecified) :: 500
O=C(O)CC(NC(=O)CP(=O)(O)O)C(=O)O (stereo unspecified) :: 0.03
O=C(O)CC(CSCP(=O)(O)O)C(=O)O (stereo unspecified) :: 430
O=C(O)CC(C[S+]([O-])CP(=O)(O)O)C(=O)O (stereo unspecified) :: 2300

Q: Could you share which Ki value was measured for O=C(O)CC(OC(=O)CP(=O)(O)O)C(=O)O (stereo unspecified) ?
A: 2
